# test_protocol: yeast display, Sf9 membrane polyspecificity reagent, FACS + sequencing; frameworks hold sequencing errors

| biosequence | polyreactivity (PSR sort gate) |
| --- | --- |
| QVQLVESVGGLVQAGCSLRLSCGASGRIFPWYAMGWYRPAPGKERELVAAIRWRGGGTYYADSVKGRFTISRDNAKNTVYLQMNSLKPEDTAVYYCSARRPAKGMGYWGQGTQVTVSS | high polyreactivity |
| QVQLVESGGGLVQAGGSLRLSCAASGRTFSQNAMGWYRQAPGKERELVAAISWSGGRTYYADSVKGRFTISRDNAKNTVYLQMNSLKPEDTAVYYCAKSQHRTYYYWGQGTQVTVSS | high polyreactivity |
| QVQLVESGGGLVQAGGSLRLSCAASGITFRTYAMGWYRQAPGKERELVAAISSRGGSTYYADSVKGRFTISRDNAKNTVYLQMNSLKPEDTAVYYCNARDVRYYEYGYWGQGTQVTVSS | high polyreactivity |
| QVQLVESGGGLVQAGGSLRLSCAASGFIFRGYAMGWYRQAPGKERELVAAISRSGGSTYYADSVKGRFTISRDNAKNTVYLQMNSLKPEDTAVYYCAARSFYSKGYDYWGQGTQVTVSS | high polyreactivity |
